system: A498 renal; test: NCI tumour cell line growth inhibition, 48 h
READOUT: TGI (µM)
Your answer should be a plain number; it is taken to be in µM.

q: Query TGI for O=C(CCN1CCCC1)Nc1ccc2c(NCCCCc3ccccc3)c3ccccc3nc2c1
a: 2.82

q: Query TGI for Cc1c2cc[n+](C)cc2c(C)c2c1[nH]c1ccc(O)cc12
a: 99.4

---

test system: EKVX NSCLC; test: NCI tumour cell line growth inhibition, 48 h
READOUT: TGI

q: Query TGI for CCOC(=O)Cc1csc(/N=C\c2c(O)c3ccccc3oc2=O)n1
a: > 100 µM

q: Query TGI for CC(=O)Nc1ccc(C(=O)N[C@@H]2C(=O)N3[C@@H]2SC(C)(C)[C@@H]3C(=O)O)cn1
a: > 100 µM

q: Query TGI for O=C1c2cccnc2-c2nc(-c3ccc([N+](=O)[O-])cc3)cc3c2c1nc1ccccc13
a: 44.6 µM

q: Query TGI for O=Cc1ccc(C(F)(F)F)cc1.[C-]#[O+].[C-]#[O+].[C-]#[O+].[Cr]
a: 45 µM

q: Query TGI for COc1cccc(-n2nnc3c(N)nc(N)nc32)c1
a: > 100 µM

q: Query TGI for Cn1cc(C(=O)C2CCCCC2)ccc1=O
a: > 100 µM

q: Query TGI for N#Cc1ccc(Nc2nc3nc[nH]c3c(=O)[nH]2)cc1
a: > 100 µM

q: Query TGI for CC1(C(O)c2ccccc2)CN(C(C)(C)C)C(=O)/C1=C\Sc1ccccc1 (stereo not given)
a: > 100 µM

q: Query TGI for CC(=O)OCc1ccc(-c2nc(C#N)c(N)o2)o1
a: > 10 µM

q: Query TGI for COc1ccc2cc(C(=O)NCCc3ccccc3)ccc2c1OC
a: > 100 µM
